All values here come from ChEMBL document CHEMBL4418299.

Biological target: Macrophage colony-stimulating factor 1 receptor (Homo sapiens)
Assay: Displacement of kinase tracer 236 from recombinant human His-tagged CSF1R cytoplasmic domain (538 to 910 residues) expressed in baculovirus-infected insect cells measured after 5 hrs by TR-FRET based LanthaScreen assay
Measurement type: IC50

Request: Note down IC50 recorded for Nc1ncnc2c3c(n(-c4ccc(CC(=O)Nc5ccc6c(c5)CCC6)cc4)c12)CCC3
Result: < 10 nM

Request: Note down IC50 recorded for Nc1ncnc2c3c(n(-c4ccc(NC(=O)Cc5cc(C(F)(F)F)ccc5F)cc4)c12)CCC3
Result: < 10 nM

Request: Note down IC50 recorded for COc1ccc(NC(=O)Cc2ccc(-n3c4c(c5ncnc(N)c53)CCC4)cc2)cn1
Result: 10 to 200 nM

Request: Note down IC50 recorded for Nc1ncnc2c3c(n(-c4ccc(NC(=O)CCc5c[nH]c6ccccc56)cc4)c12)CCC3
Result: > 200 nM

Request: Note down IC50 recorded for COc1cc(-n2c3c(c4ncnc(N)c42)CCC3)ccc1CC(=O)Nc1ccccc1
Result: 10 to 200 nM

Request: Note down IC50 recorded for COc1cc(-n2c3c(c4ncnc(N)c42)CCC3)ccc1NC(=O)Cc1ccn(C)n1
Result: > 200 nM

Request: Note down IC50 recorded for Nc1ncnc2c3c(n(-c4ccc(NC(=O)Cc5ccc(OC(F)(F)F)cc5)cc4)c12)COC3
Result: < 10 nM

Request: Note down IC50 recorded for Nc1ncnc2c3c(n(-c4ccc(CC(=O)Nc5cnc(C(F)(F)F)nc5)cc4)c12)CCC3
Result: 10 to 200 nM

Request: Note down IC50 recorded for Nc1ncnc2c3c(n(-c4ccc(NC(=O)[C@@H](N)c5ccccc5)cc4)c12)CCC3
Result: > 200 nM

* * *

Biological target: Macrophage colony-stimulating factor 1 receptor (Homo sapiens)
Test: Displacement of kinase tracer 236 from recombinant human His-tagged CSF1R cytoplasmic domain (538 to 910 residues) expressed in baculovirus-infected insect cells measured after 5 hrs by TR-FRET based LanthaScreen assay
pIC50: −log10 of the molar value.
Hi there, I'd appreciate the recorded pIC50 for every entry that follows.

Request: Note down pIC50 recorded for COc1cc(CC(=O)Nc2ccc(-n3c4c(c5ncnc(N)c53)COC4)cc2OC)cc(OC)c1
Result: 6.70 to 8.00

Request: Note down pIC50 recorded for Nc1ncnc2c3c(n(-c4ccc(NC(=O)Cc5ccccc5)cc4)c12)CCC3
Result: 6.70 to 8.00

Request: Note down pIC50 recorded for COc1cc(-n2c3c(c4ncnc(N)c42)COC3)ccc1NC(=O)Cc1cnc2c(ccn2C)c1
Result: 7.49

Request: Note down pIC50 recorded for COc1ccc(CC(=O)Nc2ccc(-n3c4c(c5ncnc(N)c53)CCC4)cc2OC)cc1C
Result: > 8.00

Request: Note down pIC50 recorded for Nc1ncnc2c3c(n(-c4ccc(NC(=O)Cc5ccccc5)c(F)c4)c12)COC3
Result: < 6.70

Request: Note down pIC50 recorded for COc1cc(-n2c3c(c4ncnc(N)c42)COC3)ccc1NC(=O)Cn1nc(C)cc1C(F)(F)F
Result: < 6.70

Request: Note down pIC50 recorded for COc1ccc(NC(=O)Cc2ccc(-n3c4c(c5ncnc(N)c53)CCC4)cc2)nn1
Result: < 6.70

Request: Note down pIC50 recorded for COc1cc(-n2c3c(c4ncnc(N)c42)CCC3)ccc1CC(=O)Nc1nc(C(F)(F)F)cs1
Result: > 8.00

Request: Note down pIC50 recorded for COc1cc(-n2c3c(c4ncnc(N)c42)CCC3)ccc1NC(=O)Cc1nnccc1C(F)(F)F
Result: < 6.70

Request: Note down pIC50 recorded for Nc1ncnc2c3c(n(-c4ccc(NC(=O)Cc5ccc(F)cc5Br)cc4)c12)CCC3
Result: > 8.00

Request: Note down pIC50 recorded for Nc1ncnc2c3c(n(-c4ccc(NC(=O)Cc5ccccc5)cc4)c12)COC3
Result: > 8.00

Request: Note down pIC50 recorded for COc1cc(-n2c3c(c4ncnc(N)c42)COC3)ccc1NC(=O)Cc1csc(C(C)(C)C)n1
Result: 6.70 to 8.00

Request: Note down pIC50 recorded for Nc1ncnc2c3c(n(-c4ccc(CC(=O)Nc5ccnc(C(F)(F)F)c5)cc4)c12)CCC3
Result: 6.70 to 8.00

Request: Note down pIC50 recorded for Nc1ncnc2c3c(n(-c4ccc(NC(=O)Cc5cc(C(F)(F)F)no5)cc4)c12)CCC3
Result: > 8.00

Request: Note down pIC50 recorded for COc1cc(-n2c3c(c4ncnc(N)c42)CCC3)ccc1NC(=O)Cc1nccc(C(F)(F)F)n1
Result: 6.70 to 8.00

Request: Note down pIC50 recorded for Cn1ccc2cc(CC(=O)Nc3ccc(-n4c5c(c6ncnc(N)c64)CCC5)cc3)ccc21
Result: 8.40

Request: Note down pIC50 recorded for Nc1ncnc2c3c(n(-c4ccc(NC(=O)CCCN5CCOCC5)cc4)c12)CCC3
Result: 6.70 to 8.00

Request: Note down pIC50 recorded for CC(C)(C)c1cnn(CC(=O)Nc2ccc(-n3c4c(c5ncnc(N)c53)COC4)cc2)c1
Result: > 8.00

Request: Note down pIC50 recorded for COc1cc(NC(=O)Cc2ccc(-n3c4c(c5ncnc(N)c53)CCC4)cc2OC)cc(C(F)(F)F)c1
Result: > 8.00

* * *

Molecular target: Macrophage colony-stimulating factor 1 receptor (Homo sapiens, UniProt P07333)
Sequence (P07333 whole entry, the tested form may be a part): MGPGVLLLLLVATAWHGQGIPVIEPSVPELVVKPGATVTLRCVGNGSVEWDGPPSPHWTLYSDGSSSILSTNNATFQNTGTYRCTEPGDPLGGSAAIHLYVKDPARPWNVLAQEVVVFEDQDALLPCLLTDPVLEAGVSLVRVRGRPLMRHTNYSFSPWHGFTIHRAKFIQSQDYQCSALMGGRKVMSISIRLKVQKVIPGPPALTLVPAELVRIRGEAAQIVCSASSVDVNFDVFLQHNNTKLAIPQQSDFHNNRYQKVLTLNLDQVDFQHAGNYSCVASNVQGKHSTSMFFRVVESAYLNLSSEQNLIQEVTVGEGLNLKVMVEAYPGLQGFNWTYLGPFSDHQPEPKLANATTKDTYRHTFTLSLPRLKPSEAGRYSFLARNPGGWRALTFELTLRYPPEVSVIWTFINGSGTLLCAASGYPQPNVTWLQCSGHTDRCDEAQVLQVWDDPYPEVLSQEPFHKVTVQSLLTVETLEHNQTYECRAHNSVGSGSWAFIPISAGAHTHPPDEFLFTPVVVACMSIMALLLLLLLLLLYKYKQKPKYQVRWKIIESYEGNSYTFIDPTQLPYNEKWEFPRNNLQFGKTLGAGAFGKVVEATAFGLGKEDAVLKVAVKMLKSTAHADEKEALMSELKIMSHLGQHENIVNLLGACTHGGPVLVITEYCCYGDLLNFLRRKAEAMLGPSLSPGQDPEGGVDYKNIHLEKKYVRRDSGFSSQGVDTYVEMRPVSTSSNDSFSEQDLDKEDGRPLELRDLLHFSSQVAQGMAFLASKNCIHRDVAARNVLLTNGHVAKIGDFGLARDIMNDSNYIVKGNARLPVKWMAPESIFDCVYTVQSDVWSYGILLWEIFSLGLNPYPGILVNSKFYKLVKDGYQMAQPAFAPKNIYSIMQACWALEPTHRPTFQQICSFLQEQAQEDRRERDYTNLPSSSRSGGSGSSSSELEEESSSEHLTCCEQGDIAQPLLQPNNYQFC
Assay: Displacement of kinase tracer 236 from recombinant human His-tagged CSF1R cytoplasmic domain (538 to 910 residues) expressed in baculovirus-infected insect cells measured after 5 hrs by TR-FRET based LanthaScreen assay
Measurement type: IC50

Request: Note down IC50 recorded for COc1cc(-n2c3c(c4ncnc(N)c42)COC3)ccc1NC(=O)Cn1cc(C(F)(F)F)cn1
Result: 10 to 200 nM

Request: Note down IC50 recorded for COc1cc(-n2c3c(c4ncnc(N)c42)COC3)ccc1CC(=O)Nc1ccccc1
Result: > 200 nM

Request: Note down IC50 recorded for COc1cc(-n2c3c(c4ncnc(N)c42)COC3)ccc1NC(=O)Cc1ccc(Cl)c(C(F)(F)F)c1
Result: < 10 nM

Request: Note down IC50 recorded for COc1ccc(CC(=O)Nc2ccc(-n3c4c(c5ncnc(N)c53)COC4)cc2OC)cc1F
Result: 10 to 200 nM

* * *

Hi there, I'd appreciate the recorded IC50 for every entry that follows.
Biological target: Macrophage colony-stimulating factor 1 receptor (Homo sapiens, UniProt P07333)
Assay: Displacement of kinase tracer 236 from recombinant human His-tagged CSF1R cytoplasmic domain (538 to 910 residues) expressed in baculovirus-infected insect cells measured after 5 hrs by TR-FRET based LanthaScreen assay

Request: Note down IC50 recorded for Nc1ncnc2c3c(n(-c4ccc(NC(=O)Cc5cc(C(F)(F)F)ccc5Cl)cc4)c12)CCC3
Result: 10 to 200 nM

Request: Note down IC50 recorded for COc1cc(-n2c3c(c4ncnc(N)c42)COC3)ccc1NC(=O)Cc1cccc(OC)c1C
Result: < 10 nM

Request: Note down IC50 recorded for COc1cc(-n2c3c(c4ncnc(N)c42)CCC3)ccc1CC(=O)Nc1ccc2c(c1)COC2(C)C
Result: < 10 nM

Request: Note down IC50 recorded for Nc1ncnc2c3c(n(-c4ccc(NC(=O)Cc5cc(C(F)(F)F)ccc5F)c(C(F)(F)F)c4)c12)CCC3
Result: > 200 nM

Request: Note down IC50 recorded for Nc1ncnc2c3c(n(-c4ccc(CC(=O)Nc5ccc(Cl)c(Cl)c5)cc4)c12)CCC3
Result: < 10 nM

Request: Note down IC50 recorded for COc1cc(-n2c3c(c4ncnc(N)c42)CCC3)ccc1CC(=O)Nc1ccc(OC)c(C(F)(F)F)c1
Result: < 10 nM

Request: Note down IC50 recorded for COc1ccc(CC(=O)Nc2ccc(-n3c4c(c5ncnc(N)c53)CCC4)cc2)cc1F
Result: < 10 nM

Request: Note down IC50 recorded for Nc1ncnc2c3c(n(-c4ccc(CC(=O)Nc5ccccc5)cc4)c12)CCC3
Result: 10 to 200 nM

Request: Note down IC50 recorded for COc1cc(-n2c3c(c4ncnc(N)c42)CCC3)ccc1NC(=O)Cn1ccc(C2CC2)n1
Result: < 10 nM

Request: Note down IC50 recorded for Cc1ccc(CC(=O)Nc2ccc(-n3c4c(c5ncnc(N)c53)CCC4)cc2)cc1F
Result: < 10 nM

Request: Note down IC50 recorded for COc1cc(-n2c3c(c4ncnc(N)c42)CCC3)ccc1CC(=O)Nc1ccc(Cl)c(Cl)c1
Result: < 10 nM

Request: Note down IC50 recorded for COc1cc(-n2c3c(c4ncnc(N)c42)CCC3)ccc1NC(=O)Cc1ccc(OC(F)(F)F)cc1
Result: < 10 nM

* * *

Biological target: Macrophage colony-stimulating factor 1 receptor (Homo sapiens, UniProt P07333)
Assay: Displacement of kinase tracer 236 from recombinant human His-tagged CSF1R cytoplasmic domain (538 to 910 residues) expressed in baculovirus-infected insect cells measured after 5 hrs by TR-FRET based LanthaScreen assay
pIC50: −log10 of the molar value.
Measurement type: pIC50

Request: Note down pIC50 recorded for Nc1ncnc2c3c(n(-c4ccc(NC(=O)Cc5ccc(Cl)nn5)cc4)c12)COC3
Result: < 6.70

Request: Note down pIC50 recorded for COc1ccc(CC(=O)Nc2ccc(-n3c4c(c5ncnc(N)c53)COC4)cc2)cc1F
Result: 7.85

Request: Note down pIC50 recorded for Nc1ncnc2c3c(n(-c4ccc(NC(=O)Cc5cc(C(F)(F)F)on5)cc4)c12)CCC3
Result: > 8.00

Request: Note down pIC50 recorded for COc1ncc(NC(=O)Cc2ccc(-n3c4c(c5ncnc(N)c53)CCC4)cc2)cc1F
Result: > 8.00

Request: Note down pIC50 recorded for COc1cc(-n2c3c(c4ncnc(N)c42)CCC3)ccc1NC(=O)Cc1cc(C(F)(F)F)nn1C
Result: 6.70 to 8.00

Request: Note down pIC50 recorded for COc1cc(-n2c3c(c4ncnc(N)c42)CCC3)ccc1NC(=O)Cc1cc(C)ccc1F
Result: > 8.00

Request: Note down pIC50 recorded for COc1ccc(CC(=O)Nc2ccc(-n3c4c(c5ncnc(N)c53)CCC4)cc2)c(OC)c1
Result: > 8.00

Request: Note down pIC50 recorded for COc1cc(-n2c3c(c4ncnc(N)c42)CCC3)ccc1NC(=O)Cc1ccc(C(F)(F)F)nc1
Result: > 8.00
